PROTOCOL: Human HepG2 cell viability assay in 384 well format
Type: toxicity, cell-based
Design: dose 125 nL, time 70.5 hour; concentration not given beside the values
COND: HepG2 cells, read-out: Inhibition
# cytotoxicity at 70.5 h annotations
Write it as a number; the unit % goes unstated.

Field: example entries. Status: answers known.
>>> numeric_readout("c1ccc(CN2CCCC(c3nccnc3-n3ccnc3)C2)cc1 (centres undefined)")
-17.5
>>> numeric_readout("COCCCn1c(CN2CCCC(O)C2)cnc1S(=O)(=O)C1CCCC1 (centres undefined)")
-5.61
>>> numeric_readout("O=C(c1cccnc1)N1C[C@@H]2CC[C@H](C1)N(Cc1ncc[nH]1)C2")
-7.7

Note cytotoxicity at 70.5 h for the molecule shown: Cn1nc(CN2CCCC2)c2c1CN(C(=O)c1cnccn1)CC2
-1.41

Note cytotoxicity at 70.5 h for the molecule shown: COc1ccc(Br)c(C(=O)NC(CC(=O)O)c2cccs2)c1 (centres undefined)
-11.5

Note cytotoxicity at 70.5 h for the molecule shown: COc1nc2ccccc2cc1CN1CCCC(CNC(C)=O)C1 (centres undefined)
-4.14

Note cytotoxicity at 70.5 h for the molecule shown: COCC1CC2(CCN(C(C)=O)CC2)CN1Cc1csc(C)n1 (centres undefined)
-4.16

Note cytotoxicity at 70.5 h for the molecule shown: Cc1nc(-c2ccoc2)n(CC(=O)NCC(C)C)c1C
1.09
